Property: IC50; scope: individual compounds
target: human PHD2 (PHD2181-417) (Homo sapiens, UniProt Q9GZT9); construct: Smt (SUMO) tag (cleaved yes); made in house; host or cells: E. coli BL21 (pBAD vector); assay: PHD enzymatic assay ([14C]-succinic acid production); assay type: biochemical; conditions: PHD2181-417, HIF-1α peptide 10 μM, average of results; read-out: Enzyme pIC50 (converted)
Sequence (Q9GZT9 181-417): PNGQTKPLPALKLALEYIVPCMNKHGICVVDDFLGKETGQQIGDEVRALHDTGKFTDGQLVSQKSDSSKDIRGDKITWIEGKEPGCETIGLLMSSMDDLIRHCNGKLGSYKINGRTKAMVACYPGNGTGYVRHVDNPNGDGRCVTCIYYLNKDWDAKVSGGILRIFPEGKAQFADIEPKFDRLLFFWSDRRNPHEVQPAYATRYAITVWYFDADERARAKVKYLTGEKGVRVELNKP
quantity: IC50 (µM)

O=C(O)c1cnn(-c2nc3ccc(-c4ccccc4C(F)(F)F)cc3c(=O)[nH]2)c1	0.0251
COc1ccc2c(=O)[nH]c(-n3cc(C(=O)O)cn3)nc2c1	0.0794
O=C(O)c1cnn(-c2nc3cc(Cl)c(Oc4cccc5ccccc45)cc3c(=O)[nH]2)c1	0.0316
Cc1ccc(Oc2cc3c(=O)[nH]c(-n4cc(C(=O)O)cn4)nc3cc2F)cc1C	0.0158
Cc1cccc(C)c1Oc1ccc2nc(-n3cc(C(=O)O)cn3)[nH]c(=O)c2c1	0.0251
O=C(O)c1cnn(-c2nc3c4c(ccc3c(=O)[nH]2)OCCO4)c1	0.251
O=C(O)c1cnn(-c2nc3ccc(-c4ccccc4OC(F)(F)F)cc3c(=O)[nH]2)c1	0.0158
O=C(O)c1cnn(-c2nc3cc(Cl)c(N4CCc5ccc(Br)cc5C4)cc3c(=O)[nH]2)c1	0.0251
Cc1ccccc1CNc1ccc2nc(-n3cc(C(=O)O)cn3)[nH]c(=O)c2c1	0.02
O=C(O)c1cnn(-c2nc3ccc(-c4cccc(OC(F)(F)F)c4)cc3c(=O)[nH]2)c1	0.0251
O=C(O)c1cnn(-c2nc3cc(F)c(Oc4ccc5c(c4)CCC5)cc3c(=O)[nH]2)c1	0.0316
O=C(O)c1cnn(-c2nc3ccc(Oc4cccc(C(F)(F)F)c4)cc3c(=O)[nH]2)c1	0.0251
CN(C)c1ccc2nc(-n3cc(C(=O)O)cn3)[nH]c(=O)c2c1	0.0501
O=C(O)c1cnn(-c2nc3cc(Sc4ccccc4Cl)ccc3c(=O)[nH]2)c1	0.0316
Cc1cc2nc(-n3cc(C(=O)O)cn3)[nH]c(=O)c2cc1Oc1cccc(-c2ccccc2)c1	0.0251
O=C(O)c1cnn(-c2nc3ccc(-c4ccc(F)cc4)cc3c(=O)[nH]2)c1	0.02
Cc1cccc(C)c1NC(=O)c1ccc2nc(-n3cc(C(=O)O)cn3)[nH]c(=O)c2c1	0.0398
